herbicidal effect rating for assorted molecules
test system: ORYSAT Rice, Tebonnet; experiment: Rice tolerance, flooded paddy (Table IV); type: in vivo, Oryza sativa; design: scale not given here; settings: 0.1250 kg/ha, crop tolerance
Output: the number by itself.

As a guide, the following entries are already answered.
Cc1cc(O)c(-c2nsc3ccc(-n4c(=O)cc(C(F)(F)F)n(C)c4=O)cc23)cc1C [Compound 11]	0.0
COC(=O)C(C)Oc1cc(C)ccc1-c1nsc2ccc(-n3c(=O)cc(C(F)(F)F)n(C)c3=O)cc12 (centres unmarked) [Compound 9]	7.0
CCC(C#N)(CC)c1nsc2ccc(-n3c(=O)cc(C(F)(F)F)n(C)c3=O)cc12 [Compound 445]	7.0

Q: Write down the reported herbicidal effect rating of CCOc1cccc(-c2nsc3ccc(-n4c(=O)cc(C(F)(F)F)n(C)c4=O)cc23)c1 [Compound 327] , test system: ORYSAT Rice, Tebonnet.
Result: 5.0

Q: Note, next up: Cn1c(C(F)(F)F)cc(=O)n(-c2ccc3snc(-c4ccccc4)c3c2)c1=O [Compound 4]
Result: 7.0

Q: Note, next up: CCc1ccc(-c2nsc3ccc(-n4c(=O)cc(C(F)(F)F)n(C)c4=O)cc23)cc1 [Compound 5]
Result: 4.0

Q: Note, next up: COc1ccc(OC)c(-c2nsc3ccc(-n4c(=O)cc(C(F)(F)F)n(C)c4=O)cc23)c1 [Compound 333]
Result: 6.0

Q: Note, next up: COCc1nsc2cc(F)c(-n3c(=O)cc(C(F)(F)F)n(C)c3=O)cc12 [Compound 378]
Result: 9.0

* * *

tested on: IPOSS; test: Preemergence herbicidal evaluation; assay type: in vivo; design: scale not given here; settings: 0.2500 kg/ha
herbicidal effect rating for assorted compounds
Output: the number by itself.

As a guide, the following entries are already answered.
Cn1c(C(F)(F)F)cc(=O)n(-c2ccc3snc(-c4ccccc4)c3c2)c1=O	9.0
O=C1C2=C(CCCC2)C(=O)N1c1ccc2sncc2c1	0.0
Cc1nsc2ccc(-n3c(=O)cc(C(F)(F)F)n(C)c3=O)cc12	9.0
Cc1nsc2ccc(N3C(=O)C4=C(CCCC4)C3=O)cc12	2.0

Here's the next entry for you.
Q: Requested field: herbicidal effect rating. Item: O=C1C2=C(CCCC2)C(=O)N1c1ccc2snc(-c3ccccc3)c2c1
Result: 0.0

* * *

tested on: Corn, Field, Zea mays; assay: Postemergence herbicidal evaluation, ZEAMX; format: in vivo, L.; details: 0.0630 kg/ha
assay readout: herbicide rating (0-9)
Output: the number by itself.

Q: Requested field: herbicide rating (0-9). Item: COC(=O)C(C)Oc1ccc(C(C)C)cc1-c1nsc2ccc(-n3c(=O)cc(C(F)(F)F)n(C)c3=O)cc12 (centres unmarked)
Result: 9.0

Q: Note, next up: Cc1ccc(OCC(=O)OCCN(C)C)c(-c2nsc3ccc(-n4c(=O)cc(C(F)(F)F)n(C)c4=O)cc23)c1
Result: 6.0

Q: Note, next up: Cn1c(C(F)(F)F)cc(=O)n(-c2ccc3snc(Cl)c3c2)c1=O
Result: 2.0

Q: Note, next up: COC(=O)C(C)Oc1ccc(C)cc1-c1nsc2ccc(-n3c(=O)cc(C(F)(F)F)n(C)c3=O)cc12 (centres unmarked)
Result: 8.3

Q: Note, next up: COc1cc(C)c(C)c(C)c1-c1nsc2ccc(-n3c(=O)cc(C(F)(F)F)n(C)c3=O)cc12
Result: 4.0

Q: Note, next up: C=CCOC(=O)COc1ccc(C)cc1-c1nsc2ccc(-n3c(=O)cc(C(F)(F)F)n(C)c3=O)cc12
Result: 8.5

Q: Note, next up: Cc1ccc(OCC(=O)OCC#Cc2ccccc2)c(-c2nsc3ccc(-n4c(=O)cc(C(F)(F)F)n(C)c4=O)cc23)c1
Result: 6.0

Q: Note, next up: COC(=O)COc1c(C)cc(C)cc1-c1nsc2ccc(-n3c(=O)cc(C(F)(F)F)n(C)c3=O)cc12
Result: 7.0

Q: Note, next up: COc1c(C)cc(C)cc1-c1nsc2ccc(-n3c(=O)cc(C(F)(F)F)n(C)c3=O)cc12
Result: 5.0

Q: Note, next up: COCc1nsc2ccc(-n3c(=O)cc(C(F)(F)F)n(C)c3=O)cc12
Result: 6.0

Q: Note, next up: CC#CCOC(=O)COc1ccc(C)cc1-c1nsc2ccc(-n3c(=O)cc(C(F)(F)F)n(C)c3=O)cc12
Result: 7.5

Q: Note, next up: C#CC(C)OC(=O)COc1ccc(C)cc1-c1nsc2ccc(-n3c(=O)cc(C(F)(F)F)n(C)c3=O)cc12 (centres unmarked)
Result: 8.5

Q: Note, next up: Cc1ccc(OC(C)C(=O)OCCCl)c(-c2nsc3ccc(-n4c(=O)cc(C(F)(F)F)n(C)c4=O)cc23)c1 (centres unmarked)
Result: 8.0

Q: Note, next up: COc1ccc(C)cc1-c1nsc2ccc(-n3c(=O)cc(C)n(C)c3=O)cc12
Result: 5.0

Values were extracted from patent US6156700A.
